# Target under test: Human CARM1 (PRMT4) (Homo sapiens)
# Construct: Flag-CARM1-His was eluted with 200 ug/ml FLAG peptide in buffer A
# Assay notes: CARM1 enzyme assay on peptide substrate (3H-SAM Flashplate)
# Condition context: CARM1 0.25 nM, 3H-SAM 30 nM, peptide 250 nM; read-out: Biochem IC50
pIC50: −log10 of the molar value.
Measured attribute: pIC50

Problem: Look up pIC50 for this compound: C=Cc1cc(OCC(O)CNC)cc(-c2cc(NC3CCOCC3)n3ncc(C(C)C)c3n2)c1 (stereo not shown) [Example 33-6]
Solution: 6.00 to 7.00

Problem: Please answer likewise for CNCC(O)COc1cc(OC)cc(-c2cc(NC3CCOCC3)c3c(C)nn(C(C)C)c3n2)c1 (stereo not shown) [Example 20-4]
Solution: > 7.00

Problem: Same again, this time with CNCC(O)COc1cccc(-c2cc(N(C)[C@@H]3CCOC3)n3ncc(C(C)C)c3n2)c1 (stereo partly shown) [Example 13-6]
Solution: > 7.00

Problem: Do the same for CNCC(O)COc1cc(Cl)cc(-c2cc(NC3CCOCC3)c3cnn(C(C)C)c3n2)c1 (stereo not shown) [Example 2-4] please
Solution: > 7.00

Problem: Similarly, CNCC(O)COc1cccc(-c2nc(NCc3ccccn3)c3cnn(C4CC4)c3n2)c1 (stereo not shown) [Example 22-5] ?
Solution: 6.00 to 7.00

Problem: Could you do the same for CNCC(O)COc1cc(OC)cc(-c2cc(N(C)C3CCOCC3)c3c(C)nn(C(C)C)c3n2)c1 (stereo not shown) [Example 25-4] , please?
Solution: > 7.00

Problem: NCC(O)COc1cccc(-c2nc(N3C4CCC3COC4)c3cnn(C4CC4)c3n2)c1 (stereo not shown) [Example 17-5] , same question.
Solution: > 7.00

Problem: Would you kindly repeat that for CNCC(O)COc1cccc(-c2nc(NC3CCOCC3)c3cnn(C(C)(C)C)c3n2)c1 (stereo not shown) [Example 3-5] ?
Solution: > 7.00

Problem: Now this one: CNCC(O)COc1cc(Cl)cc(-c2cc(N3CC4(CCOCC4)C3)n3ncc(C(C)C)c3n2)c1 (stereo not shown) [Example 50-6]
Solution: > 7.00

Problem: // repeat for NCC(O)COc1cccc(-c2nc(NCc3cccnc3)c3cnn(C4CC4)c3n2)c1 (stereo not shown) [Example 11-5] and report
Solution: 6.00 to 7.00

Problem: Lookup CNCC(O)COc1cccc(-c2cc(-c3cnc4[nH]ccc4c3)nc3c(C(C)C)cnn23)c1 (stereo not shown) [Example 4-7]
Solution: > 7.00

Problem: What about this compound? CNCC(O)COc1cccc(-c2cc(N[C@@H]3CCOC3)n3ncc(C(C)C)c3n2)c1 (stereo partly shown) [Example 11-6]
Solution: > 7.00

Problem: Subsequent entry: NCC(O)COc1cccc(-c2nc(N3CC4CCC(C3)O4)c3cnn(C4CC4)c3n2)c1 (stereo not shown) [Example 16-5]
Solution: > 7.00

Problem: Repeat for the following compound: CNCC(O)COc1cccc(-c2nc(NCc3cccc[n+]3[O-])c3cnn(C4CC4)c3n2)c1 (stereo not shown) [Example 31-5]
Solution: 6.00 to 7.00

Problem: Also, CNCC(O)COc1cc(C#N)cc(-c2cc(N3CCOCC3)n3ncc(C(C)C)c3n2)c1 (stereo not shown) [Example 26-9] please.
Solution: 6.00 to 7.00

Problem: Would you kindly repeat that for CNCC(O)COc1cc(Cl)cc(-c2cc(N(C)C3CCOCC3)n3ncc(C(C)(C)C)c3n2)c1 (stereo not shown) [Example 9-9] ?
Solution: 6.00 to 7.00

###

# Target under test: Human CARM1 (PRMT4) (Homo sapiens, UniProt Q86X55)
# Construct: Flag-CARM1-His was eluted with 200 ug/ml FLAG peptide in buffer A
# Sequence (Q86X55 other isoform, or with tags, fused parts or gaps): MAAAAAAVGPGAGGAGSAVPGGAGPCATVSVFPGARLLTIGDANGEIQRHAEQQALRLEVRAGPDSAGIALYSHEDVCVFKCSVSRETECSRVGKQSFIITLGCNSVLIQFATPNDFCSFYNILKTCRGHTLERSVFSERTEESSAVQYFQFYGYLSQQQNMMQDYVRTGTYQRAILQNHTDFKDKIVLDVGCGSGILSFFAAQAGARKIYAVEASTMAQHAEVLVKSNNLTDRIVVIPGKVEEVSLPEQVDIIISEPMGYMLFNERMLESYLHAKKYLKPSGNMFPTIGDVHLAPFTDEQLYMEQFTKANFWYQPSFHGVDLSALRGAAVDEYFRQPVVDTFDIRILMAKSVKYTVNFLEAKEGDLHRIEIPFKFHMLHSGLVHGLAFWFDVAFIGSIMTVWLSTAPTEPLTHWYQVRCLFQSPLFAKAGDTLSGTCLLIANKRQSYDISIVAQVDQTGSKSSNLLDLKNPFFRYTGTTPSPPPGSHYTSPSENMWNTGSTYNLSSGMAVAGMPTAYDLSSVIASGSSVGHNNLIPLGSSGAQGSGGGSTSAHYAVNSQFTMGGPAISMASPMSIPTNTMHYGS
# Assay notes: CARM1 enzyme assay on peptide substrate (3H-SAM Flashplate)
# Condition context: CARM1 0.25 nM, 3H-SAM 30 nM, peptide 250 nM; read-out: Biochem IC50
pIC50: −log10 of the molar value.
Assignment: determine reported pIC50 for the given compounds.

Problem: Would you mind telling me what pIC50 value was observed for CNCC(O)COc1cc(OC)cc(-c2cc(C)n3ncc(C(C)C)c3n2)c1 (centres unmarked) ?
Solution: > 7.00

Problem: Now this one: CNCC(O)COc1cc(OC)cc(-c2cc(N3CC4CCC(C3)O4)n3ncc(C(C)C)c3n2)c1 (centres unmarked)
Solution: 6.00 to 7.00

Problem: Then CNCC(O)COc1cc(OC(C)C)cc(-c2cc(N3CCOCC3)c3cnn(C(C)C)c3n2)c1 (centres unmarked) ?
Solution: > 7.00

Problem: Now this one: Cc1cc(CNc2nc(-c3cccc(OCC(O)CN)c3)nc3c2cnn3C2CC2)no1 (centres unmarked)
Solution: 6.00 to 7.00

Problem: Now the compound CNCC(O)COc1cc(OC)cc(-c2cc(NC3CCOCC3)c3cnn(C(C)C)c3n2)c1 (centres unmarked)
Solution: > 7.00

Problem: Then CNCC(O)COc1cc(Cl)cc(-c2cc(-c3cc[nH]n3)nc3c(C(C)C)cnn23)c1 (centres unmarked) ?
Solution: > 7.00

Problem: CC(C)n1ncc2c(NC3CCOC3)nc(-c3cccc(OCC(O)CN)c3)nc21 (centres unmarked) , same question.
Solution: > 7.00

Problem: Cool, now CNCC(O)COc1cc(Cl)cc(-c2cc(NC3CCOCC3)n3ncc(C(C)C)c3n2)c1 (centres unmarked)
Solution: > 7.00

###

What IC50 was measured for each of the following?
# Target under test: Human CARM1 (PRMT4) (Homo sapiens, UniProt Q86X55)
# Construct: Flag-CARM1-His was eluted with 200 ug/ml FLAG peptide in buffer A
# Assay notes: CARM1 enzyme assay on peptide substrate (3H-SAM Flashplate)
# Condition context: CARM1 0.25 nM, 3H-SAM 30 nM, peptide 250 nM; read-out: Biochem IC50

Problem: What value of IC50 has been recorded for this entry: CNCC(O)COc1cccc(-c2nc(N3CC4CCC(C3)O4)c3cnn(C4CC4)c3n2)c1 (stereo not shown) [Example 7-9]
Solution: < 100 nM

Problem: Same read-out for CNCC(O)COc1cc(OC)cc(-c2cc(N3CCOCC3)n3ncc(C(=O)OC)c3n2)c1 (stereo not shown) [Example 17-8] ?
Solution: < 100 nM

Problem: Repeat for the following compound: Cc1cc(OCC(O)CN)cc(-c2cc(N3CCOCC3)c3cnn(C(C)C)c3n2)c1 (stereo not shown) [Example 4-4]
Solution: < 100 nM

Problem: Would you kindly repeat that for NCC(O)COc1cccc(-c2nc(NCc3cn4ccsc4n3)c3cnn(C4CC4)c3n2)c1 (stereo not shown) [Example 39-5] ?
Solution: < 100 nM

Problem: What would you report for CC(C)(C)c1cnn2c(NC3CCOCC3)cc(-c3cc(Cl)cc(OCC(O)CN)c3)nc12 (stereo not shown) [Example 15-8] ?
Solution: 100 to 1000 nM

Problem: // same read-out, input: CNCC(O)COc1cc(OC)cc(-c2cc(N[C@@H]3CCOC3)n3ncc(C(C)C)c3n2)c1 (stereo partly shown) [Example 24-6]
Solution: < 100 nM

Problem: Consider next the compound CNCC(O)COc1cccc(-c2cc(NC3CCOCC3)c3c(C4CC4)nn(C(C)C)c3n2)c1 (stereo not shown) [Example 2-2] in the same way.
Solution: < 100 nM

Problem: Same again, this time with CNCC(O)COc1cc(OC)cc(-c2cc(Nc3ncccn3)n3ncc(C(C)C)c3n2)c1 (stereo not shown) [Example 31-6]
Solution: < 100 nM

Problem: C#Cc1cc(OCC(O)CNC)cc(-c2cc(N3CCOCC3)n3ncc(C(C)C)c3n2)c1 (stereo not shown) [Example 15-6] , same question.
Solution: < 100 nM

Problem: // repeat for CNCC(O)COc1cccc(-c2nc(NC3CCOCC3)c3cnn(C4CC4)c3n2)c1 (stereo not shown) [Example 19-5] and report
Solution: 100 to 1000 nM

Problem: Then what about the compound CC(C)n1ncc2c(N3CCOCC3)cc(-c3cc(F)cc(OCC(O)CN)c3)nc21 (stereo not shown) [Example 7-8] ?
Solution: < 100 nM

Problem: CNCC(O)COc1cccc(-c2cc(N(C)C3CCOCC3)c3c(C)nn(C(C)C)c3n2)c1 (stereo not shown) [Example 6-2] ?
Solution: < 100 nM

Problem: Field entry: CNCC(O)COc1cccc(-c2nc(NCc3cnn(C)c3)c3cnn(C(C)(C)C)c3n2)c1 (stereo not shown) [Example 8-8]
Solution: < 100 nM

Problem: Moving on to CNCC(O)COc1cccc(-c2cc(N3CC4(CCOCC4)C3)n3ncc(C(C)C)c3n2)c1 (stereo not shown) [Example 32-6]
Solution: < 100 nM

Problem: COc1cc(OCC(O)CN)cc(-c2cc(N(C3CCOCC3)C3CC3)n3ncc(C(C)C)c3n2)c1 (stereo not shown) [Example 13-8] , same question.
Solution: 100 to 1000 nM

Problem: Same for CNCC(O)COc1cccc(-c2nc(NC3CCOCC3)c3cnn(C(C)(C)C)c3n2)c1 (stereo not shown) [Example 30-5]
Solution: < 100 nM
